Source: ChEMBL document CHEMBL1141997

Measurement Notes: Inhibition constant against Adenosine A2a receptor

# Compound, Ki / nM
records = [
    ("CC(C)(C)c1ccc2c(c1)-c1nc(N)nc(-c3ccc(Br)o3)c1C2", 8.1),
    ("Nc1nc(-c2ccccc2)c2[nH]c3ccccc3c2n1", 40.5),
    ("CC(C)c1ccc2c(c1)-c1nc(N)nc(-c3ccc(Br)o3)c1C2", 0.8),
    ("Cc1ccc2c(c1)-c1nc(N)nc(C3CCC(Br)O3)c1C2 (stereo not given)", 4.2),
    ("Nc1nc(-c2ccccc2)c2c(n1)-c1ccccc1C2O (stereo not given)", 168),
    ("Cc1ccc2c(c1)-c1nc(N)nc(-c3ccccc3)c1C2", 11),
    ("COc1ccc2c(c1)-c1nc(N)nc(-c3ccc(Br)o3)c1C2", 1.6),
    ("Nc1nc(-c2ccccc2)c2c(n1)-c1ccccc1CC2", 172),
    ("Nc1nc(-c2ccc(Br)o2)c2c(n1)-c1cc(N3CCCC3)ccc1C2", 3.9),
    ("Nc1nc(-c2ccc(Br)o2)c2c(n1)-c1cc(Cl)ccc1C2", 1),
    ("Cc1ccc2c(c1)-c1nc(N)nc(-c3ccco3)c1C2", 6.7),
    ("Nc1nc(-c2ccc(Br)o2)c2c(n1)-c1cc(-c3ccccc3)ccc1C2", 10.9),
    ("CCc1ccc2c(c1)-c1nc(N)nc(-c3ccc(Br)o3)c1C2", 2.6),
    ("Cc1ccc2c(c1)-c1nc(N)nc(-c3ccncc3)c1C2", 56.9),
    ("Cc1ccc2c(c1)-c1nc(N)nc(-c3ccc(Br)o3)c1C2", 4.2),
    ("Cc1ccc2c(c1)-c1nc(N)nc(-c3ccccn3)c1C2", 154),
    ("Nc1nc(-c2ccccc2)c2oc3ccccc3c2n1", 9),
    ("Cc1ccc2c(c1)-c1nc(N)nc(-c3ccc(CO)o3)c1C2", 2.6),
    ("Cc1ccc2c(c1)-c1nc(N)nc(-c3ccc(C)o3)c1C2", 7.1),
    ("Nc1nc(-c2ccccc2)c2c(n1)-c1ccccc1C2=O", 1.7),
]
